Tested on: MDA-MB-231 breast
Assay: NCI-60 one-dose screen, 48 h (100 = growth as untreated, 0 = no growth, -100 = all killed)
Conditions: 10 µM unless noted
Protocol: Cells are grown in 96 well plates and exposed to the test compound for 48 hours. Compounds are tested at a single concentration, which is 10^-5 M for most compounds. The reported endpoint is percent growth (GI% or GIPRCNT), where numbers from 0 - 100% represent growth inhibition, and numbers from -100% - 0 represent cell death. For example, a value of 40 represents 60% growth inhibition. A value of 0 means no net growth occurred over the course of the experiment. […]
The panel holds about 83,000 compounds, 20% with a hit somewhere; the sample as a whole holds those more often.

compound	growth / %
COc1ccc(C2CC(c3cccc(OC)c3)=NN2C(=O)c2cc(OC)c(OC)c(OC)c2)cc1 (centres undefined)	33.6
COc1cccc(Nc2nccc(Nc3ccc4[nH]ncc4c3)n2)c1	15
COc1ccccc1CNCCCN1C(=O)c2ccc3c4c(ccc(c24)C1=O)C(=O)N(CCCNCCCCN)C3=O	9.4
Cc1cc(Cl)ccc1Nc1nc(C(F)(F)F)ccc1C(=O)N/N=C/c1ccc(N(C)C)cc1	22
CCCCC1CCCCN1C(=O)OCC (centres undefined)	107
COc1cc(C2CC(c3cc(OC)c(OCCCOc4ccc(-n5c(/C=C/c6ccccc6)nc6ccccc6c5=O)cc4)c(OC)c3)=NO2)cc(OC)c1OC (centres undefined)	110
c1coc(-c2c3ccc(=[N+]4CCCCC4)cc-3oc3cc(N4CCCCC4)ccc23)c1	-56.5
NC(=N\N=C/c1cccc([N+](=O)[O-])c1)/C(N)=N\N=C/c1cccc([N+](=O)[O-])c1	93.4
O=C(Nc1cccc(Cl)c1)c1cc(N=Nc2ccc([N+](=O)[O-])cc2Cl)ccc1O	64.1

* * *

Tested on: HS 578T breast
Assay: NCI-60 one-dose screen, 48 h (100 = growth as untreated, 0 = no growth, -100 = all killed)
Settings: 10 µM unless noted
This is part of a sample that, as a whole, favours compounds with a hit. Of some 83,000 tested, about 20% had one in any assay. Activity calls are given as the source filed them. The calls were made as follows: active = growth percent below 10; inactive = the rest.
assay.metric: growth

molecule	readout.value
OC(c1cccc(-n2ccc(C(F)(F)F)n2)c1)c1cnccc1NC1CCCCCC1 (stereo not given)	49.8% (inactive)
O=C(NC(Cc1nnc2n(Cc3ccccc3)c(=O)c3c4c(sc3n12)CCCC4)c1ccc(Cl)cc1)c1ccccc1 (stereo not given)	91.3% (inactive)
O=c1cc(C2NNC(=S)N2)c2ccc3ccccc3c2o1 (stereo not given)	71% (inactive)
CCCCCc1nc2c(c3c1CCCC3)CCCC2	65% (inactive)
COc1cc(C(=O)/C=C/c2c(C(F)(F)F)nc3sccn23)cc(OC)c1OC	37.4% (inactive)
Cc1ccccc1NC(=O)N/C(N)=N/c1nc(-c2cccc([N+](=O)[O-])c2)cs1	11.2% (inactive)
N#Cc1c(-c2ccccn2)[nH]c(=S)[nH]c1=O	109% (inactive)
C=CC(=O)Nc1cccc(Oc2nccc(Nc3nnc(C4CC4)s3)n2)c1	91.6% (inactive)
Cc1c2c(c(C)c3c1oc1cc(O)ccc13)C(=O)N(CCN1CCCCC1)C2=O	89.8% (inactive)
O=C1OC(c2nc3ccccc3s2)=C/C1=C\c1ccc(O)cc1	89.6% (inactive)
Cn1c(-c2c(N)n(Cc3ccc(C(F)(F)F)cc3)c3nc(C#N)c(C#N)nc23)nc2ccccc21	12.4% (inactive)
COc1cc(C2NC(=O)c3ccccc3N2)ccc1OCCCCCOc1c(OC)cc(C2=NOC(c3cc(OC)c(OC)c(OC)c3)C2)cc1OC (stereo not given)	102% (inactive)
COC(=O)[C@]12CC[C@@H](C)[C@H](C)[C@@H]1C1=CC[C@@H]3[C@@]4(C)C(C=O)=C[C@@](C)(COS(C)(=O)=O)[C@@H]4C(=O)C[C@@]3(C)[C@]1(C)CC2	62.3% (inactive)
N[C@@H](CCCCNCC(=O)O)C(=O)O	98.2% (inactive)
COc1nc2c(c(=O)n1C)CN(c1ccccc1)C(=O)CN2C	59.9% [100 µM] (inactive)
N#CCN1C(=O)C2C3=C(CCCC3)SC2N=C1CN1CCCC1 (stereo not given)	108% (inactive)
COc1ccc(OC)c(-c2c(C#N)c(-c3ccc(Cl)cc3)nc3c2c(-c2ccccc2)nn3-c2ccccc2)c1	100% (inactive)
O=C(Nc1ccc(Nc2ccncc2)cc1)c1ccc(C(=O)Nc2ccc(Nc3ccncc3)cc2)cc1	88.2% (inactive)
COc1ccc(-c2csc(C3=C(O)CN(C(C)C)C3=N)n2)cc1OC	110% (inactive)
COc1ccc2c(c1)[nH]c(=O)c1c3cccnc3cn21	49.6% (inactive)
